Tested on: Escherichia coli TOP10
methodNotes: shrunken log2 fold change of peptide-encoding DNA abundance (4.5 h post-induction vs induction); higher = less antimicrobial activity (less host growth inhibition)
conditionsUsed: time post-induction: 4.5 h; library: site-saturation at positions 5, 18, 19, 20
measurementType: shrunken log2 fold change
Lab note: jot down the number only; don't add units.

Use the examples below as a reference point.
Which shrunken log2 fold change value is on record for RRIRTRPPRLPRPRPRPQQMPRP ?
-0.0941

Okay, and RRIRLRPPRLPRPRPRPPFGPRP ?
0.0044

Likewise for RRIRTRPPRLPRPRPRPISNPRP ?
-0.576

---
What value of measured shrunken log2 fold change is listed for RRIRMRPPRLPRPRPRPESDPRP ?
3.34

Let us now turn to RRIRDRPPRLPRPRPRPNEPPRP
-0.0233

For RRIRKRPPRLPRPRPRPVNEPRP then?
-0.00608

Subsequent entry: RRIRVRPPRLPRPRPRPIWYPRP
-0.146

Entry RRIRIRPPRLPRPRPRPDMNPRP please
-0.146

Same lookup for RRIRERPPRLPRPRPRPFNHPRP , please.
-1.01

And what about the sequence RRIRVRPPRLPRPRPRPLNYPRP ?
-0.621

Next entry: RRIRGRPPRLPRPRPRPGDNPRP
0.0889

Please answer likewise for RRIRDRPPRLPRPRPRPYLSPRP
-0.102

Repeat with RRIRFRPPRLPRPRPRPATPPRP
0.315

Note, next up: RRIRQRPPRLPRPRPRPRNKPRP
-0.68

What would you report for RRIRERPPRLPRPRPRPWLRPRP ?
0.0269

Then what about the sequence RRIRHRPPRLPRPRPRPCVHPRP ?
-0.00151

# repeat for RRIRIRPPRLPRPRPRPRMAPRP
0.0331

Please answer likewise for RRIRPRPPRLPRPRPRPYSMPRP
-1.43

# repeat for RRIRTRPPRLPRPRPRPYLDPRP
-0.381

---

System: Escherichia coli TOP10
methodNotes: shrunken log2 fold change of peptide-encoding DNA abundance (4.5 h post-induction vs induction); higher = less antimicrobial activity (less host growth inhibition)
conditionsUsed: time post-induction: 4.5 h; library: site-saturation at positions 5, 18, 19, 20
Classify as follows. Reported shrunken log2 fold change greater than or equal to -0.1: Condition met. Reported shrunken log2 fold change below: Condition not met.

Record RRIRERPPRLPRPRPRPRCRPRP ; criterion: shrunken log2 fold change no lower than -0.1. Met?
Condition met

***
Reported shrunken log2 fold change at or above -0.1? RRIRTRPPRLPRPRPRPQSSPRP
Condition met

One more sequence: RRIRTRPPRLPRPRPRPQWNPRP
Condition not met

---

System: Escherichia coli TOP10;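 note: peptides expressed intracellularly from a pBAD plasmid library in pooled LB shake-flask culture, induced with 0.3% L-arabinose, DNA abundance read by NGS, three biological replicates, DESeq2 with apeglm shrinkage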
methodNotes: shrunken log2 fold change of peptide-encoding DNA abundance (4.5 h post-induction vs induction); higher = less antimicrobial activity (less host growth inhibition)
conditionsUsed: time post-induction: 4.5 h; library: site-saturation at positions 5, 18, 19, 20
Reported shrunken log2 fold change by item:

# get_value(readout='shrunken log2 fold change', item= RRIRARPPRLPRPRPRPELEPRP )
1.88

Try this sequence next: RRIRVRPPRLPRPRPRPWGDPRP
0.148

Follow-up item: RRIRIRPPRLPRPRPRPAHWPRP
0.396

Shift focus to the following entry.
I'd like to know its shrunken log2 fold change. The sequence in question is RRIRERPPRLPRPRPRPNKQPRP
-0.174

These entries and their values trace back to the supplement of paper PMC9112550.
